# tgt: firefly luciferase (FLuc) (Photinus pyralis, UniProt P08659)
# Construct: purchased Sigma-Aldrich; host or cells: E. coli
# Sequence (P08659 whole entry): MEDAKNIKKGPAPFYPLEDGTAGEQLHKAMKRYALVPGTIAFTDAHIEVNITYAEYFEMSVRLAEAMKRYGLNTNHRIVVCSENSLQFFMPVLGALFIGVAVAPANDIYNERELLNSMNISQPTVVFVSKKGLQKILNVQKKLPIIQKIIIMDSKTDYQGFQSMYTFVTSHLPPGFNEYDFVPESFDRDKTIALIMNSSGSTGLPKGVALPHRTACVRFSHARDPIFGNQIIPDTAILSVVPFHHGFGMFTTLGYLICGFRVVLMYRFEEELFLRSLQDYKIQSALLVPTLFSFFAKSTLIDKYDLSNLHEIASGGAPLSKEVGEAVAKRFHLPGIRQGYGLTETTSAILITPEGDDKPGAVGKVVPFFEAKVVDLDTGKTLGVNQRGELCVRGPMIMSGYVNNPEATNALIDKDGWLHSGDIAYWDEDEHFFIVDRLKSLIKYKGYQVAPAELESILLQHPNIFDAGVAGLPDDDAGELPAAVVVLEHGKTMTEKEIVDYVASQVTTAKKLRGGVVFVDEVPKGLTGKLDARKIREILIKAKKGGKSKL
# method.summary: Inhibition assay of luciferase (purified recombinant enzyme, bioluminescence readout)
# Type: biochemical
# experimental.parameters: read-out: Inhibition (%) of FLuc, compound concentration 10 µM; n = 3; relative to DMSO vehicle control
Reported inhibition at 10 µM values for the following molecules.
# number only, unit % dropped from output

molecule: CC1(C)C=Cc2cc(C(=O)/C=C/c3ccc(O)cc3)ccc2N1 [Compound 6]
inhibition at 10 µM, %: 18

Kindly review the next molecule as well.
Form: molecule = CC1(C)C=Cc2cc(C(=O)/C=C/c3ccc(O)cc3)ccc2O1 [Compound 2] ; inhibition at 10 µM = 30

* * *

# tgt: firefly luciferase (FLuc) (Photinus pyralis)
# method.summary: Inhibition assay of luciferase (purified recombinant enzyme, bioluminescence readout)
# experimental.parameters: sigmoidal fit; concentration series 100 µM to 13 nM and 300 µM to 0.41 nM; n = 3
pIC50: −log10 of the molar value.
test.readout: pIC50

Illustrative cases are given below, each with its answer.
compound: O=C(O)c1cccc(-c2noc(-c3ccccc3F)n2)c1 [Ataluren, reference compound]
tgt: firefly luciferase (FLuc) (Photinus pyralis)
test.readout: pIC50
result: 6.96
--
compound: CC1(C)C=Cc2cc(C(=O)/C=C/c3cccc(O)c3O)ccc2O1 [Compound 18]
tgt: firefly luciferase (FLuc) (Photinus pyralis)
test.readout: pIC50
result: > 5.00

Kindly note the recorded pIC50 for CC1(C)C=Cc2cc(C(=O)/C=C/c3ccccc3)ccc2O1 [Compound 14] , which is > 5.00

* * *

# tgt: firefly luciferase (FLuc) (Photinus pyralis, UniProt P08659)
# Construct: purchased Sigma-Aldrich; host or cells: E. coli
# method.summary: Inhibition assay of luciferase (purified recombinant enzyme, bioluminescence readout)
# Type: biochemical
# experimental.parameters: read-out: Inhibition (%) of FLuc, compound concentration 10 µM; n = 3; relative to DMSO vehicle control
The compounds listed here are annotated with their inhibition at 10 µM.

Would you please look over these solved cases?
chemical.structure: CC1(C)C=Cc2c(ccc(C(=O)/C=C/c3ccc(O)cc3)c2O)O1
test.readout: inhibition at 10 µM
result: < 10%

chemical.structure: COc1cc2c(cc1C(=O)/C=C/c1ccc(O)cc1)C=CC(C)(C)O2
test.readout: inhibition at 10 µM
result: < 5%

response.value for CC1(C)C=Cc2cc(C(=O)/C=C/c3ccc(O)cc3)c(O)cc2O1 (field: inhibition at 10 µM) = < 5%
